target: recombinant rat PIM-3 (Rattus norvegicus); assay: PIM-3 Assay (as Example A); conditions: averaged IC50; 30 μM ATP, 3.75 μM PIM2tide, 0.5 nM PIM-3
pIC50: −log10 of the molar value. Structures can show the parent of a compound that is named as a salt.
Assay endpoint: pIC50

Asked: # assay system recombinant rat PIM-3 (Rattus norvegicus): give pIC50 of COCCc1ccc2ccc(-c3nnc4ccc([C@@H](N5CC[C@H](N)C5)C(F)(F)F)cn34)nc2c1 [Example 269, dihydrochloride]
Given back: 8.70

Asked: # assay system recombinant rat PIM-3 (Rattus norvegicus): give pIC50 of CCOc1cc2nc(-c3nnc4ccc([C@@H](N5CC[C@H](CN)C5)C(F)(F)F)cn34)ccc2cc1F [Example 280, hydrochloride]
Given back: 8.60

Asked: # assay system recombinant rat PIM-3 (Rattus norvegicus): give pIC50 of CC(C)Oc1cc(F)cc2ccc(-c3nnc4ccc([C@@H](N5C[C@@H](N)[C@H](O)C5)C(F)(F)F)cn34)nc12 [Example 147, dihydrochloride]
Given back: 9.52

Asked: # assay system recombinant rat PIM-3 (Rattus norvegicus): give pIC50 of COc1ccc2ccc(-c3nnc4ccc([C@@H](N5CC[C@H](N)C5)C(F)(F)F)cn34)nc2c1 [Example 139, dihydrochloride]
Given back: 8.31

[a] COC[C@@H](C)Oc1ccc2ccc(-c3nnc4ccc([C@@H](N5CC[C@H](N)C5)C(F)(F)F)cn34)nc2c1 [Example 149, dihydrochloride]
[b] Cc1oc(=O)oc1COC(=O)N[C@H]1CCN([C@H](c2ccc3nnc(-c4ccc5cc(F)c(OCCO)cc5n4)n3c2)C(F)(F)F)C1
[c] CCOc1ccc2ccc(-c3nnc4ccc([C@H](N5CCC6(CCCN6)C5)C(F)(F)F)cn34)nc2c1 (some centres unmarked) [Example 258, dihydrochloride]
Asked: Please order the records by their reported pIC50, lowest number first. The reply should contain the labels ordered as requested.
Given back: b, c, a

----------
biological target: recombinant rat PIM-3 (Rattus norvegicus, UniProt O70444); assay: PIM-3 Assay (as Example A); details: averaged IC50; 30 μM ATP, 3.75 μM PIM2tide, 0.5 nM PIM-3
Where a name gives a salt, the structure may show the parent alone.
Assay endpoint: IC50 (nM)

[P] CN[C@H]1CCN([C@H](c2ccc3nnc(-c4ccc5ccc(C(=O)NC(C)C)cc5n4)n3c2)C(F)(F)F)C1 [Example 57]
[Q] COc1c(C2CC2)ccc2ccc(-c3nnc4ccc([C@@H](N5CC[C@H](N)C5)C(F)(F)F)cn34)nc12 [Example 69, dihydrochloride]
Asked: Between P and Q , which one shows the larger IC50 value? // output: label of the selected item
Given back: P

[A] COCC(C)(C)c1cccc2ccc(-c3nnc4ccc([C@@H](N5CC[C@H](N)C5)C(F)(F)F)cn34)nc12 [Example 105, dihydrochloride]
[B] CC1Cc2c(ccc3ccc(-c4nnc5ccc([C@@H](N6CC[C@H](N)C6)C(F)(F)F)cn45)nc23)O1 (stereo partly shown) [Example 144, dihydrochloride]
Asked: Between A and B , which one shows the larger IC50 value? // output: label of the selected item
Given back: B
(B: 1 nM, A: 0.7 nM)

[A] C[C@H](O)COc1cccc2ccc(-c3nnc4ccc([C@@H](N5CC[C@H](N)C5)C(F)(F)F)cn34)nc12 [Example 187, dihydrochloride]
[B] CC(C)(C)C(=O)OCCOc1cc2nc(-c3nnc4ccc([C@@H](N5CC[C@H](N)C5)C(F)(F)F)cn34)ccc2cc1F [Example 286]
Asked: I would appreciate it if you could say which entry, A or B , has the lower IC50 value. // output: label of the selected item
Given back: A
